- Test system: ACHN renal
- experiment_notes: NCI-60 one-dose screen, 48 h (100 = growth as untreated, 0 = no growth, -100 = all killed)
- measurement_setup: 10 µM
The panel holds about 83,000 compounds, 20% with a hit somewhere; the sample as a whole holds those more often.
Listing of recorded growth by entry.

| molecule | growth [%] |
| --- | --- |
| COc1cc2c(Nc3ccc(S(N)(=O)=O)cc3)ncnc2c(OC)c1OC | 99.4 |
| CCC1NC(=O)c2cc(S(N)(=O)=O)c(Cl)cc2N1 (stereo unspecified) | 108 |
| O=C1/C(=C/c2cccc(F)c2)Cc2ccccc21 | 102 |
| CCN(CC)CCCOc1cccc2c1C(=O)c1cccc(OCCCN(CC)CC)c1C2=O | 22.7 |
| CC(C)(C)c1nn(-c2ccccc2)c2c1CC1(CN2Cc2ccc(Cl)cc2)C(=O)c2ccccc2C1=O | 98.9 |
| N#CCc1csc(Cc2ccccc2)n1 | 109 |
| O=C1c2ccccc2C(=O)c2c1ccc(C(Br)Br)c2[N+](=O)[O-] | -16.1 |
| Nc1cc(-c2ccc(Cl)cc2)nn1-c1nc2ccccc2nc1Cc1ccccc1 | 103 |
| CCOC(=O)c1cc(C(=O)c2cc(OC)c(OC)c(OC)c2)n2nc(C)ccc12 | 49.4 |
| CCCC1(CN2c3ccccc3Sc3ccc(Cl)cc32)CCN(CC)C1 (stereo unspecified) | 0.109 |
| O=C(O)COc1c(Cl)cc([N+](=O)[O-])cc1Cl | 106 |

Reference source: PubChem BioAssay (NCI)
